Target: Serine/threonine-protein kinase B-raf [V600E] (Homo sapiens, UniProt P15056, V600E)
Sequence (P15056 2-766 V600E limits assumed): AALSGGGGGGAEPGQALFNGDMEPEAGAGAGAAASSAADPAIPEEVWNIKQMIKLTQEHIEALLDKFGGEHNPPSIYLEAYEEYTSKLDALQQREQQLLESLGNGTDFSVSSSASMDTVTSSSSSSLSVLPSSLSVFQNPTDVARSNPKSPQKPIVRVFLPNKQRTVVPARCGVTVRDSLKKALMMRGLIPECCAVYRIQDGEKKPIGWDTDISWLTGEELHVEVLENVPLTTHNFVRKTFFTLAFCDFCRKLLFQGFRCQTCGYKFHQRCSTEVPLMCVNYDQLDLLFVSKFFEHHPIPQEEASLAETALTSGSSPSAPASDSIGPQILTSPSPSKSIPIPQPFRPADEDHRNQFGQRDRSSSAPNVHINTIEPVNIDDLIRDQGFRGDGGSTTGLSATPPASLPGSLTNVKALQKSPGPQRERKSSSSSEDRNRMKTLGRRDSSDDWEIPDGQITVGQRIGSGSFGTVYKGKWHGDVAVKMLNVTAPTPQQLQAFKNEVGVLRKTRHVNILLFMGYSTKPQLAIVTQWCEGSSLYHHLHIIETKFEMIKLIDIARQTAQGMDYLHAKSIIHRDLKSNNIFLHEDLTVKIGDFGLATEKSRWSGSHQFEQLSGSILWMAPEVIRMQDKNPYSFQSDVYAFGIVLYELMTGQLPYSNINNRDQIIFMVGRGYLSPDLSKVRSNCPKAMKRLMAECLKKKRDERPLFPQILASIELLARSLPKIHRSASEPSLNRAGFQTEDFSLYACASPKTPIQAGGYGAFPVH
Assay: BRAF V600E Enzyme Assay
endpoint name: IC50 (nM)

[
  {
    "mol": "Cc1c(Nc2c(F)ccc(NS(=O)(=O)N3CC(C)(F)C3)c2Cl)ccc2ncn(C)c(=O)c12",
    "IC50 [nM]": 7
  }
]

A: Cn1cnc2ccc(Nc3c(F)ccc(NS(=O)(=O)N4CC(OC(F)F)C4)c3Cl)c(Cl)c2c1=O
B: Cc1c(Nc2c(F)ccc(NS(=O)(=O)N3CC4(CCC4)C3)c2Cl)ccc2ncn(C)c(=O)c12
# input When A and B are compared, which has the higher number for IC50? API: response body contains the label of the selected item.
# output B
(B: 29 nM, A: 8 nM)
